These data points were gathered from PubChem BioAssay AID1745844.

# System: rodent lifetime carcinogenesis bioassay, tumor incidence TD50
# experiment: carcinogenic potency in animals, long-term in vivo studies, CPDB compilation (AID 1745844)
# condition: mouse; strain C3H (MTV+); males; in feed; site: liver; lesion: hepatoma; dosed 73 weeks; study length 73 weeks
measurement kind: TD50

Identify measured TD50 obtained with rodent lifetime carcinogenesis bioassay, tumor incidence TD50 for O=c1cc[nH]c(=S)[nH]1 .
48.6 mg/kg/day

* * *

# System: rodent lifetime carcinogenesis bioassay, tumor incidence TD50
# experiment: carcinogenic potency in animals, long-term in vivo studies, CPDB compilation (AID 1745844)
# condition: rat; strain ACI; males; i.p.; site: liver; lesion: several types; types named in the paper; dosed 56 weeks; study length 92 weeks
measurement kind: TD50

Determine its reported TD50: C/C=C(\C)C(=O)O[C@@H]1CCN2CC=C(COC(=O)[C@](O)(C(C)C)[C@H](C)O)[C@H]12
1.91 mg/kg/day

* * *

# System: rodent lifetime carcinogenesis bioassay, tumor incidence TD50
# experiment: carcinogenic potency in animals, long-term in vivo studies, CPDB compilation (AID 1745844)
# condition: mouse; strain BDF1; males; in drinking water; site: liver; lesion: hepatocellular adenoma; dosed 104 weeks; study length 105 weeks
measurement kind: TD50

Consider the compound C1COCCO1 and give its recorded TD50.
519 mg/kg/day

* * *

# System: rodent lifetime carcinogenesis bioassay, tumor incidence TD50
# experiment: carcinogenic potency in animals, long-term in vivo studies, CPDB compilation (AID 1745844)
# condition: rat; strain Fischer 344; females; by gavage; site: liver; lesion: hepatocellular adenoma + hepatoblastoma + hepatocellular carcinoma; dosed 103 weeks; study length 104 weeks
measurement kind: TD50 (mg/kg/day)
Lab book: enter the figure in mg/kg/day, no units written.

Recall the reported TD50 of CC(CN1c2ccccc2Sc2ccccc21)N(C)C (stereo unspecified) when tested on rodent lifetime carcinogenesis bioassay, tumor incidence TD50.
418

* * *

# Tested on: rodent lifetime carcinogenesis bioassay, tumor incidence TD50
# experiment: carcinogenic potency in animals, long-term in vivo studies, CPDB compilation (AID 1745844)
# condition: mouse; strain B6C3F1; females; in feed; site: lymph node; lesion: malignant lymphoma; dosed 104 weeks; study length 104 weeks
Calls of active or inactive are those of the source. No rule for the calls is given here.
measurement kind: TD50

# return recorded TD50 for entry CC1=C(C(=O)OCCN(Cc2ccccc2)c2ccccc2)C(c2cccc([N+](=O)[O-])c2)C(P2(=O)OCC(C)(C)CO2)=C(C)N1 (stereo unspecified)
276 mg/kg/day (inactive)

* * *

# System: rodent lifetime carcinogenesis bioassay, tumor incidence TD50
# experiment: carcinogenic potency in animals, long-term in vivo studies, CPDB compilation (AID 1745844)
# condition: rat; strain Wistar; males; in drinking water; site: kidney; lesion: papillary transitional-cell carcinoma; dosed 87 weeks; study length 100 weeks
measurement kind: TD50

Specify reported TD50 for the compound shown: CC(=O)OC1CC(C)OC(C)O1 (stereo unspecified)
6770 mg/kg/day

* * *

# Tested on: rodent lifetime carcinogenesis bioassay, tumor incidence TD50
# experiment: carcinogenic potency in animals, long-term in vivo studies, CPDB compilation (AID 1745844)
# condition: mouse; strain C57BL/10J; females; in feed; site: pylorus; lesion: adenomatous polyp; dosed 97 weeks; study length 97 weeks
measurement kind: TD50

Would you please give the reported TD50 of CC(=O)O[C@]1(C(C)=O)CC[C@H]2[C@@H]3C=C(Cl)C4=CC(=O)[C@@H]5C[C@@H]5[C@]4(C)[C@H]3CC[C@@]21C with rodent lifetime carcinogenesis bioassay, tumor incidence TD50?
16.8 mg/kg/day
